What Ki was measured for each of the following?
- target: hCA II (Homo sapiens)
- Construct: gene CA2; purchased from Merck; cytosolic isoform; construct not described
- measurement description: stopped-flow CO2 hydrase assay
- Format: biochemical
Numbers only, in nM.

Take a look at these entries with their results.
- compound: "Cc1ccc(S(=O)(=O)N2CCN(C(=O)c3cc(S(N)(=O)=O)c(Cl)cc3Cl)CC2)cc1 [compound 5]"
  Ki (nM): 29
- compound: "Nc1ccccc1S(=O)(=O)N1CCN(C(=O)c2cc(S(N)(=O)=O)c(Cl)cc2Cl)CC1 [compound 14]"
  Ki (nM): 2.8
- compound: "CC(=O)Nc1ccc(S(=O)(=O)N2CCN(C(=O)c3cc(S(N)(=O)=O)c(Cl)cc3Cl)CC2)cc1 [compound 10]"
  Ki (nM): 5.4

Continue with the next compound.
Kindly state the measured Ki obtained for Nc1ccc(S(=O)(=O)N2CCN(C(=O)c3cc(S(N)(=O)=O)c(Cl)cc3Cl)CC2)cc1 [compound 9] with hCA II (Homo sapiens). 2.6
